experiment: Acute toxicity in the rat (LD50, method of Reed and Muench); conditions: in vivo, po, rat female
ENDPOINT NAME: LD50 (mg/kg)
Give a bare numeral; the unit mg/kg is implied.

Input: Please look up its LD50: O=S(=O)(O)c1cc(O)c(S(=O)(=O)O)cc1O
Output: 4680

* * *

experiment: Acute toxicity in the mouse (LD50, method of Reed and Muench); conditions: in vivo, iv, I.V., mouse male
ENDPOINT NAME: LD50 (mg/kg)
Give a bare numeral; the unit mg/kg is implied.

Input: Please look up its LD50: O=S(=O)(O)c1cc(O)c(S(=O)(=O)O)cc1O
Output: 1020

* * *

test: Acute toxicity in the mouse (LD50, method of Reed and Muench); details: in vivo, po, mouse male
ENDPOINT NAME: LD50 (mg/kg)
Give a bare numeral; the unit mg/kg is implied.

Input: Please look up its LD50: O=S(=O)(O)c1cc(O)c(S(=O)(=O)O)cc1O
Output: 6290

* * *

assay: Acute toxicity in the mouse (LD50, method of Reed and Muench); settings: in vivo, po, mouse female
ENDPOINT NAME: LD50 (mg/kg)
Give a bare numeral; the unit mg/kg is implied.

Input: Please look up its LD50: O=S(=O)(O)c1cc(O)c(S(=O)(=O)O)cc1O
Output: 5880

* * *

assay: DL50 of some compounds according to the invention (species not stated); details: in vivo, route not given
ENDPOINT NAME: LD50 (mg/kg)
Give a bare numeral; the unit mg/kg is implied.

Input: Please look up its LD50: O=S(=O)(O)c1cc(O)c(S(=O)(=O)O)cc1O
Output: 1210

* * *

test: Acute toxicity in the mouse (LD50, method of Reed and Muench); details: in vivo, iv, I.V., mouse female
ENDPOINT NAME: LD50 (mg/kg)
Give a bare numeral; the unit mg/kg is implied.

Input: Please look up its LD50: O=S(=O)(O)c1cc(O)c(S(=O)(=O)O)cc1O
Output: 1020

* * *

test: Acute toxicity in the rat (LD50, method of Reed and Muench); conditions: in vivo, po, rat male
ENDPOINT NAME: LD50 (mg/kg)
Give a bare numeral; the unit mg/kg is implied.

Input: Please look up its LD50: O=S(=O)(O)c1cc(O)c(S(=O)(=O)O)cc1O
Output: 5840
